Numbers sourced from patent US20050245399A1.

- Test system: wheat (Triticum aestivum L.): TRZAX
- assay_procedure: Test Example 1 pre-emergence herbicidal activity, TRZAX
- Format: in vivo
- particulars: Rate 63 g a.i./ha, visually observed 20th to 23rd day after application
Response field label takes Y when Pre-emergence Herbicidal Activity TRZAX (growth controlling degree) is strictly below 20% and N in all other cases.

Solved cases below.
Record COc1c(Cl)cc(F)c(-c2nn(C)c(OC(F)F)c2Cl)c1NC(=O)C=Cc1c(Cl)cccc1Cl : is its Pre-emergence Herbicidal Activity TRZAX (growth controlling degree) strictly below 20%?
Y

Try the compound COCCOC(=O)Nc1c(OC)c(Cl)cc(F)c1-c1nn(C)c(OC(F)F)c1Cl
N

Next record, please: Cn1nc(-c2c(F)cc(Cl)c(OC(F)F)c2NCc2ccccc2)c(Cl)c1OC(F)F
Y

More entries:
For COc1c(Cl)cc(F)c(-c2nn(C)c(OC(F)F)c2Cl)c1N(C=O)C1CCCC1 , is the recorded Pre-emergence Herbicidal Activity TRZAX (growth controlling degree) below the cut-off of 20%?
N

Lookup CCCOC(=O)Nc1c(OC)c(Cl)cc(F)c1-c1nn(C)c(OC(F)F)c1Cl
N

Another compound: Cn1nc(-c2c(F)cc(Cl)c(OC(F)F)c2NS(C)(=O)=O)c(Cl)c1OC(F)F
Y

Now this one: COc1c(Cl)cc(F)c(-c2nn(C)c(OC(F)F)c2Cl)c1NC(=O)C=C(C)C
N

###

- System: corn (Zea mays L.): ZEAMX
- assay_procedure: Test Example 1 pre-emergence herbicidal activity, ZEAMX
- Format: in vivo
- particulars: Rate 63 g a.i./ha, visually observed 20th to 23rd day after application
measurement_label: Pre-emergence Herbicidal Activity ZEAMX (growth controlling degree) (%)
Please reply with the bare figure in % and do not write the unit itself.

Record excerpt, results attached:
For the compound Cn1nc(-c2c(F)cc(Cl)c(OC(F)F)c2NCc2ccccc2)c(Cl)c1OC(F)F [Compound 1-88] , what Pre-emergence Herbicidal Activity ZEAMX (growth controlling degree) is on record?
0

What do we get for COCCC(=O)Nc1c(OC)c(Cl)cc(F)c1-c1nn(C)c(OC(F)F)c1Cl [Compound 1-40] ?
60

Try this compound next: COc1c(Cl)cc(F)c(-c2nn(C)c(OC(F)F)c2Cl)c1NC(=O)CCc1ccc(F)cc1 [Compound 1-267]
0

--- query ---
# get_value(readout='Pre-emergence Herbicidal Activity ZEAMX (growth controlling degree)', item= COc1c(Cl)cc(F)c(-c2nn(C)c(OC(F)F)c2Cl)c1NC(=O)OCCCl [Compound 1-68] )
10

###

- Tested on: wheat (Triticum aestivum L.): TRZAX
- assay_procedure: Test Example 1 pre-emergence herbicidal activity, TRZAX
- Format: in vivo
- particulars: Rate 63 g a.i./ha, visually observed 20th to 23rd day after application
The label is 1.0 for Pre-emergence Herbicidal Activity TRZAX (growth controlling degree) below 10% and 0.0 for Pre-emergence Herbicidal Activity TRZAX (growth controlling degree) equal to or exceeding 10%.

// known answers, use as guide
Quick check: Pre-emergence Herbicidal Activity TRZAX (growth controlling degree) of COc1c(Cl)cc(F)c(-c2nn(C)c(OC(F)F)c2Cl)c1NC(=O)CCc1ccc(F)cc1 under 10%?
0.0

Let us now turn to COc1c(Cl)cc(F)c(-c2nn(C)c(OC(F)F)c2Cl)c1N(C=O)CC(C)=O
0.0

Try the molecule CCOC(=O)C(C)Nc1c(OC)c(Cl)cc(F)c1-c1nn(C)c(OC(F)F)c1Cl (centres unmarked)
1.0

Now consider COc1c(Cl)cc(F)c(-c2nn(C)c(OC(F)F)c2Cl)c1NC(=O)CCc1ccccc1F and answer again.
0.0

What do you get for COc1c(Cl)cc(F)c(-c2nn(C)c(OC(F)F)c2Cl)c1NCCOc1ccccc1 ?
1.0

Thanks! And CCOC(=O)Nc1c(OC)c(Cl)cc(F)c1-c1nn(C)c(OC(F)F)c1Cl ?
1.0

Let us examine a further case.
Hello, is Pre-emergence Herbicidal Activity TRZAX (growth controlling degree) of the following molecule strictly smaller than 10%? COc1c(Cl)cc(F)c(-c2nn(C)c(OC(F)F)c2Cl)c1NC(=O)OCc1ccccc1
0.0

###

- Tested on: soybean (Glycine max Merr.), GLXMA
- assay_procedure: Test Example 2 post-emergence (foliage treatment) herbicidal activity, GLXMA
- Format: in vivo
- particulars: 63 g a.i./ha
Examples of compounds with documented growth controlling degree, GLXMA follow.
Express the result in % but write the number alone.

Consider the compound shown here: COc1c(Cl)cc(F)c(-c2nn(C)c(OC(F)F)c2Cl)c1N(C(=O)OCCl)C(=O)OCCl [Compound 1-55] What is its recorded growth controlling degree, GLXMA?
30

Subsequent entry: COc1ccc(C(=O)Nc2c(OC)c(Cl)cc(F)c2-c2nn(C)c(OC(F)F)c2Cl)cc1 [Compound 1-29]
100

Further cases:
Reported growth controlling degree, GLXMA for COc1c(Cl)cc(F)c(-c2nn(C)c(OC(F)F)c2Cl)c1NC(=O)C(C)c1ccccc1 (centres unmarked) [Compound 1-41] : what is it?
40

###

Measured growth controlling degree, TRZAX of individual entries
- Tested on: wheat (Triticum aestivum L.), TRZAX
- assay_procedure: Test Example 2 post-emergence (foliage treatment) herbicidal activity, TRZAX
- Format: in vivo
- particulars: 63 g a.i./ha
Reply with just the number (in %).

Use these answered entries as a reference point.
# query: growth controlling degree, TRZAX of entry COC(=O)Nc1c(OC)c(Cl)cc(F)c1-c1nn(C)c(OC(F)F)c1Cl
30

How about this compound: Cn1nc(-c2c(F)cc(Cl)c(OC(F)F)c2NS(C)(=O)=O)c(Cl)c1OC(F)F
0

Now the compound COc1c(Cl)cc(F)c(-c2nn(C)c(OC(F)F)c2Cl)c1N(C(=O)C=C(C)C)C(=O)C=C(C)C
20

Now give it for COc1c(Cl)cc(F)c(-c2nn(C)c(OC(F)F)c2Cl)c1NC(=O)OCCCl too.
20

Field entry: COc1c(Cl)cc(F)c(-c2nn(C)c(OC(F)F)c2Cl)c1NC(=O)OCC1CCCCC1
50

How about COc1c(Cl)cc(F)c(-c2nn(C)c(OC(F)F)c2Cl)c1NC(=O)OCc1ccccc1Cl ?
40

Continue with COCCC(=O)Nc1c(OC)c(Cl)cc(F)c1-c1nn(C)c(OC(F)F)c1Cl
50

Next, consider the following compound.
// lookup growth controlling degree, TRZAX for COc1c(Cl)cc(F)c(-c2nn(C)c(OC(F)F)c2Cl)c1NC(=O)COc1ccc(C#N)cc1
10

###

- System: corn (Zea mays L.): ZEAMX
- assay_procedure: Test Example 1 pre-emergence herbicidal activity, ZEAMX
- Assay type: in vivo
- particulars: Rate 63 g a.i./ha, visually observed 20th to 23rd day after application
- Text: […]
Lab note: cut-off is 10%. Strictly less in Pre-emergence Herbicidal Activity ZEAMX (growth controlling degree) is Y. Exactly 10% or more is N.

Past entries and their recorded results:
Threshold test, Pre-emergence Herbicidal Activity ZEAMX (growth controlling degree) < 10%: COc1c(Cl)cc(F)c(-c2nn(C)c(OC(F)F)c2Cl)c1NC(=O)c1ccccc1F [Compound 1-22]
N

Next: COc1c(Cl)cc(F)c(-c2nn(C)c(OC(F)F)c2Cl)c1N(C=O)C1CCCC1 [Compound 1-10]
N

Try the compound COc1c(Cl)cc(F)c(-c2nn(C)c(OC(F)F)c2Cl)c1NC(=O)OCC(C)C [Compound 1-64]
Y

Others:
In the record for COc1c(Cl)cc(F)c(-c2nn(C)c(OC(F)F)c2Cl)c1NC(=O)OCCN(C)C [Compound 1-66] , is Pre-emergence Herbicidal Activity ZEAMX (growth controlling degree) less than 10%?
Y

What do you get for COc1c(Cl)cc(F)c(-c2nn(C)c(OC(F)F)c2Cl)c1N [Compound 1-90] ?
N

Next record, please: COc1c(Cl)cc(F)c(-c2nn(C)c(OC(F)F)c2Cl)c1N(C=O)CC(=O)c1ccc(Cl)cc1 [Compound 1-13]
N

Entry COc1c(Cl)cc(F)c(-c2nn(C)c(OC(F)F)c2Cl)c1NCCOc1ccccc1 [Compound 1-77] please
Y

CCOC(=O)Nc1c(OC)c(Cl)cc(F)c1-c1nn(C)c(OC(F)F)c1Cl [Compound 1-273] , same question.
Y

Now give it for COc1c(Cl)cc(F)c(-c2nn(C)c(OC(F)F)c2Cl)c1NC(=O)C=C(C)C [Compound 1-9] too.
N

Now the same for COc1c(Cl)cc(F)c(-c2nn(C)c(OC(F)F)c2Cl)c1NC(=O)CCC1CCCCC1 [Compound 1-259]
Y

Also check COc1c(Cl)cc(F)c(-c2nn(C)c(OC(F)F)c2Cl)c1NC(=O)C(C)=Cc1ccccc1 [Compound 1-251]
Y

What do we get for COc1c(Cl)cc(F)c(-c2nn(C)c(OC(F)F)c2Cl)c1NC(=O)c1ccc(F)cc1 [Compound 1-263] ?
Y

Try this compound next: COc1c(Cl)cc(F)c(-c2nn(C)c(OC(F)F)c2Cl)c1NC(=O)OCc1ccccc1 [Compound 1-71]
N

Now the compound COc1c(Cl)cc(F)c(-c2nn(C)c(OC(F)F)c2Cl)c1NC(=O)CCc1ccccc1 [Compound 1-21]
N
